# system.tested: BAFF (PeproTech, Cat: 310-13) (UniProt Q9Y275 134-285)
# Sequence (Q9Y275 134-285 limits assumed): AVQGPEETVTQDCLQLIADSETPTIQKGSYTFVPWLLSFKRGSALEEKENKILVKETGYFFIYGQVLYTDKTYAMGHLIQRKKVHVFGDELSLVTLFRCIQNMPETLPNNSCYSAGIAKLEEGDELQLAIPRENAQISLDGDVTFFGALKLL
# assay.comment: ELISA, BAFF coated at 1 ug/mL, anti-human Fc-HRP, OD450
assay.metric: EC50 (nM)
The answer is to be given in nM; state only the numeric part.

INSERT INTO measurements (binder, numeric_readout) VALUES
  ('B575702 (Fc fusion, TACI-BCMA fusion protein; also called BCMA-ECD-TACI-d2-Fc) MLQMAGQCSQNEYFDSLLHACIPCQLRCSSNTPPLTCQRYCNASVTNSVKGTNALSCRKEQGKFYDHLLRDCISCASICGQHPKQCAYFCENKLRSPGDKTHTCPPCPAPEAEGAPSVFLFPPKPKDTLMISRTPEVTCVVVDVSHEDPEVKFNWYVDGVEVHNAKTKPREEQYNSTYRVVSVLTVLHQDWLNGKEYKCKVSNKALPSSIEKTISKAKGQPREPQVYTLPPSRDELTKNQVSLTCLVKGFYPSDIAVEWESNGQPENNYKTTPPVLDSDGSFFLYSKLTVDKSRWQQGNVFSCSVMHEALHNHYTQKSLSLSPGK', 0.166);

Turning now to a further record.
Challenge: Record request: EC50 value, item Telitacicept (RCT-18) (Fc fusion, Positive control TACI-Fc; also called RC18) SRVDQEERFPQGLWTGVAMRSCPEEQYWDPLLGTCMSCKTICNHQSQRTCAAFCRSLSCRKEQGKFYDHLLRDCISCASICGQHPKQCAYFCENKLRSPVNLPPELDKTHTCPPCPAPEAEGAPSVFLFPPKPKDTLMISRTPEVTCVVVDVSHEDPEVKFNWYVDGVEVHNAKTKPREEQYNSTYRVVSVLTVLHQDWLNGKEYKCKVSNKALPSSIEKTISKAKGQPREPQVYTLPPSRDELTKNQVSLTCLVKGFYPSDIAVEWESNGQPENNYKTTPPVLDSDGSFFLYSKLTVDKSRWQQGNVFSCSVMHEALHNHYTQKSLSLSPGK
Response given: 0.713
